Where do the numbers come from? From PubChem BioAssay (NCI).

Tested on: MDA-MB-435 melanoma
Test: NCI-60 one-dose screen, 48 h (100 = growth as untreated, 0 = no growth, -100 = all killed)
Settings: 10 µM unless noted
About 83,000 compounds went through this panel and 20% of them were active in at least one assay; those are over-represented in the sample as a whole.
If the reported growth equals or exceeds 10%, assign 1. If not, assign -1.

Exercise: API: above_or_equal(metric=growth, cutoff=10%) for item CCCC(=O)OCC1OC(n2cnc3c(=S)nc[nH]c32)C(OC(=O)CCC)C1OC(=O)CCC (stereo not given)
Solution: 1

Exercise: API: above_or_equal(metric=growth, cutoff=10%) for item COc1cnc2c(c1)C(=O)c1c-2n(CCCn2ccnc2)c(=O)c2cc(Cl)ccc12
Solution: 1

Exercise: API: above_or_equal(metric=growth, cutoff=10%) for item COc1cc(-c2nc(C(=O)Nc3ccc(C)cc3)nn2-c2ccc(F)c(F)c2)cc(OC)c1OC
Solution: 1

Exercise: API: above_or_equal(metric=growth, cutoff=10%) for item CCCCN1CCCC[C@@H]1C(=O)N[C@H](C(=O)N(C)[C@H](CCc1nc(C(=O)N[C@@H](Cc2ccccc2)C[C@H](C)C(=O)OC)cs1)C(C)C)C(C)C
Solution: -1

Exercise: API: above_or_equal(metric=growth, cutoff=10%) for item O=C1NC(=O)/C(=C/c2ccc3nccc(-c4ccncc4)c3c2)S1
Solution: -1

----------
System: A549/ATCC NSCLC
Experiment: NCI-60 one-dose screen, 48 h
Details: 10 µM unless noted
Compounds without any hit were thinned out: in the full panel of roughly 83,000, 20% have a hit. The source made the active and inactive calls. How the source made its calls: active means growth percent below 10; inactive means the rest.
Parameter call: string, one of True (active), False (inactive)

Exercise: // outcome(item) with item = O=C(CNc1nnc(-c2ccc(Cl)cc2)o1)Nc1ccc(-c2nc3ccccc3s2)cc1
Solution: False

Exercise: // outcome(item) with item = CNC(=O)c1cc(Oc2ccc3nc(NC(=O)Nc4ccc(Cl)c(C(F)(F)F)c4)sc3c2)ccn1
Solution: True

Exercise: // outcome(item) with item = CCCCCCCCCNCCCCCCCCC
Solution: False

----------
System: MDA-MB-231 breast
Experiment: NCI-60 one-dose screen, 48 h
Details: 10 µM unless noted
About 83,000 compounds went through this panel and 20% of them were active in at least one assay; those are over-represented in the sample as a whole. Activity calls are given as the source filed them. How the source made its calls: active means growth percent below 10; inactive means the rest.
Parameter call: string, one of active, inactive

Exercise: // outcome(item) with item = Cn1ncc(Cl)c1-c1cc(C(=O)N[C@H](CN)Cc2ccc(F)c(F)c2)oc1Cl
Solution: active

Exercise: // outcome(item) with item = COc1ccc(-c2cnc(-c3ccc(Cl)cc3)[nH]2)cc1OC
Solution: inactive

Exercise: // outcome(item) with item = Cc1cc(NCC(=O)Nc2ccc(-c3nc4ccccc4s3)cc2)no1
Solution: inactive

Exercise: // outcome(item) with item = NC(=O)c1n[nH]n2c1nc(=O)c1c3c(sc12)CCCC3
Solution: inactive

Exercise: // outcome(item) with item = CCc1cnn2c(NCc3ccc[n+]([O-])c3)cc(N3CCCC[C@H]3CCO)nc12
Solution: active

Exercise: // outcome(item) with item = N#Cc1ccc(-n2nnc3ccccc32)cc1C#N
Solution: inactive

----------
Test system: SF-268 CNS
Experiment: NCI-60 one-dose screen, 48 h (100 = growth as untreated, 0 = no growth, -100 = all killed)
Settings: 10 µM unless noted
The panel holds about 83,000 compounds, 20% with a hit somewhere; the sample as a whole holds those more often. Activity calls are given as the source filed them. How the source made its calls: active means growth percent below 10; inactive means the rest.
Endpoint: growth

The measured growth associated with Cc1cc(C(=O)Nc2cc(Oc3ccc4nc(NC(=O)C5CC5)cn4n3)ccc2C)n(C)n1 reads 40.9% (inactive)

The measured growth associated with O=C(c1ccc(/C=C/c2n[nH]c3ccccc23)cc1)N1CCNCC1 reads 39.2% (inactive)

The measured growth associated with CCOc1cccc(/C=N/NC(=O)c2ccccc2Nc2ccnc(C(F)(F)F)c2)c1O reads 13% (inactive)

The measured growth associated with Cc1cc(NCC(=O)Nc2ccc(-c3nc4ccccc4s3)cc2)no1 reads 87.4% (inactive)

The measured growth associated with CCCCCC(=O)OCc1ccc(Cl)c(Cl)c1 reads 99.3% (inactive)

The measured growth associated with CC(=O)OC(C(=O)c1ccccc1)c1ccccc1 (configuration not stated) reads 107% (inactive)

The measured growth associated with CCN(CC)CCNC(=O)c1c(C)[nH]c(/C=C2\C(=O)Nc3ccc(F)cc32)c1C reads 39.6% (inactive)

The measured growth associated with Cc1csc(-c2nnc(Nc3ccc(Oc4ncccc4-c4ccnc(N)n4)cc3)c3ccccc23)c1 reads 58.3% (inactive)

The measured growth associated with CO[C@H]1C[C@@H]2CC[C@@H](C)[C@@](O)(O2)C(=O)C(=O)N2CCCC[C@H]2C(=O)O[C@H]([C@H](C)C[C@@H]2CC[C@@H](O)[C@H](OC)C2)CC(=O)[C@H](C)/C=C(\C)[C@@H](O)[C@@H](OC)C(=O)[C@H](C)C[C@H](C)\C=C/C=C/C=C/1C reads 39.3% (inactive)

The measured growth associated with O=C(Nc1cccc(Cl)c1)Nc1ncc(CCNc2ncnc3ccsc23)s1 reads 39.4% (inactive)

The measured growth associated with Cc1ccc(-n2nc(C(C)(C)C)cc2NC(=O)NCc2cc(F)ccc2Oc2ccc3c(cnn3CCO)c2)cc1 reads 34.8% (inactive)

The measured growth associated with Cc1ccsc1C(NC(=O)c1ccccc1)c1cc(Cl)c2cccnc2c1O (configuration not stated) reads 31.6% (inactive)

The measured growth associated with Oc1ccc(/C=N/Nc2nnc(N/N=C/c3ccc(O)cc3O)c3ccccc23)c(O)c1 reads -5.14% (active)

The measured growth associated with CCn1cc(-c2ccnc3[nH]c(-c4cccc(CN(C)C)c4)cc23)c(-c2ccc(NC(=O)N(C)C)cc2)n1 reads 33.5% (inactive)

The measured growth associated with N#Cc1c(-c2ccc(C(F)(F)F)cc2)cc(NCC2CCS(=O)(=O)CC2)n2c1nc1ccccc12 reads 82.4% (inactive)

The measured growth associated with O=c1[nH]c(N2CCOCC2)nc2scc(-c3ccccc3)c12 reads 89.4% (inactive)

The measured growth associated with CNc1ncc2cc(-c3cc(NC(=O)NCCC(C)(C)C)c(F)cc3C)c(C)nc2n1 reads 26.5% (inactive)

The measured growth associated with O=c1sn(-c2cccc3ccccc23)c(=O)n1Cc1ccccc1 reads 105% (inactive)

The measured growth associated with CCc1nc2ccc(Cc3ccc(C(=O)NO)cc3)cc2c(=O)n1CCc1ccccc1 reads -48.5% (active)

The measured growth associated with COc1cnc2c(c1)C(=O)c1c-2n(CCCN2CCC(O)CC2)c(=O)c2cc(Cl)ccc12 reads 34.7% (inactive)

The measured growth associated with Brc1ccc([I+]c2ccc(Br)cc2)cc1 reads -56.7% (active)

The measured growth associated with CCCCOc1nc2cc(Cl)ccc2cc1/C=C/c1cc(/C=C/c2cc3ccc(Cl)cc3nc2OCCCC)n(-c2ccccc2)n1 reads 74.9% (inactive)

The measured growth associated with Cn1ccnc1C(=O)/C=C/c1ccc(CC(=O)Nc2ccc(Br)cc2)cc1 reads 16.2% (inactive)

The measured growth associated with CCCCN1CCCC[C@@H]1C(=O)N[C@H](C(=O)N(C)[C@H](CCc1nc(C(=O)N[C@@H](Cc2ccccc2)C[C@H](C)C(=O)OC)cs1)C(C)C)C(C)C reads 84.3% (inactive)

The measured growth associated with COc1ccc2c(OCc3nnc4ccc(-c5ccccc5)nn34)ccnc2c1 reads 109% [2.5 µM] (inactive)

The measured growth associated with CN(C[C@@H]1COCCO1)S(=O)(=O)Nc1ccc2ccc3ncc(-c4cnn(C)c4)cc3c(=O)c2c1 reads 35% (inactive)

The measured growth associated with CNC(=O)c1nn(C)c2c1C(C)(C)Cc1cnc(Nc3ccc(N4CCN(C)CC4)cc3)nc1-2 reads 7.96% (active)

----------
Test system: CAKI-1 renal
Experiment: NCI-60 one-dose screen, 48 h (100 = growth as untreated, 0 = no growth, -100 = all killed)
Details: 10 µM unless noted
About 83,000 compounds went through this panel and 20% of them were active in at least one assay; those are over-represented in the sample as a whole.
If the reported growth equals or exceeds 80%, assign satisfied. If not, assign not satisfied.

Exercise: API: above_or_equal(metric=growth, cutoff=80%) for item CNC(=O)c1nn(C)c2c1C(C)(C)Cc1cnc(Nc3ccc(N4CCN(C)CC4)cc3)nc1-2
Solution: not satisfied

Exercise: API: above_or_equal(metric=growth, cutoff=80%) for item NC1=Nc2ccccc2N(O)N1
Solution: satisfied

Exercise: API: above_or_equal(metric=growth, cutoff=80%) for item COc1cc(NCCCN)c2ncccc2c1
Solution: satisfied

Exercise: API: above_or_equal(metric=growth, cutoff=80%) for item Cc1ccc(C(=O)Nc2ccc(CN3CCN(C)CC3)c(C(F)(F)F)c2)cc1C#Cc1cnc2cccnn12
Solution: not satisfied

Exercise: API: above_or_equal(metric=growth, cutoff=80%) for item C[C@@H](Oc1cc(-n2cnc3ccc(CN4CCN(C)CC4)cc32)sc1C(N)=O)c1ccccc1C(F)(F)F
Solution: not satisfied

Exercise: API: above_or_equal(metric=growth, cutoff=80%) for item COC(=O)[C@]12CC[C@@H](C)[C@H](C)[C@@H]1C1=CC[C@@H]3[C@@]4(C)C(C#N)=CC(C)=C4CC[C@@]3(C)[C@]1(C)CC2
Solution: not satisfied

Exercise: API: above_or_equal(metric=growth, cutoff=80%) for item COc1cc2c(cc1OCCCCN1CCN(CC(=O)Nc3ccc(Cl)cc3C(=O)c3ccccc3Cl)CC1)N=CC1CCCN1C2=O (stereo unspecified)
Solution: not satisfied

Exercise: API: above_or_equal(metric=growth, cutoff=80%) for item Cc1nn(-c2nc3ccccc3[nH]2)c2c1C(c1ccc(O)cc1)CC(=O)N2 (stereo unspecified)
Solution: satisfied

Exercise: API: above_or_equal(metric=growth, cutoff=80%) for item Cc1[nH]c(/C=C2\C(=O)Nc3ccc(F)cc32)c(C)c1C(=O)NC[C@H](O)CN1CCOCC1
Solution: not satisfied

Exercise: API: above_or_equal(metric=growth, cutoff=80%) for item COc1c(C(NC(=O)c2ccccc2)c2sccc2C)cc(Cl)c2cccnc12 (stereo unspecified)
Solution: satisfied

Exercise: API: above_or_equal(metric=growth, cutoff=80%) for item O=C(Nc1ccc(N=Nc2ccccc2)cc1)c1cccc2ccccc12
Solution: not satisfied

Exercise: API: above_or_equal(metric=growth, cutoff=80%) for item COc1cc2cc(NCc3ccc(Cl)cc3)nc(C)c2cc1OC
Solution: not satisfied

Exercise: API: above_or_equal(metric=growth, cutoff=80%) for item CCNC(=O)Nc1nc2ccc(Oc3ccnc(C(=O)NC)c3)cc2s1
Solution: satisfied

Exercise: API: above_or_equal(metric=growth, cutoff=80%) for item CO[C@@H](C)Cn1c(=O)n(C)c2cnc3ccc(-c4cncc(C(C)(C)O)c4)cc3c21
Solution: not satisfied

Exercise: API: above_or_equal(metric=growth, cutoff=80%) for item O=C(Nc1cccc([N+](=O)[O-])c1)c1ccc(Cl)c(Cl)c1
Solution: satisfied

Exercise: API: above_or_equal(metric=growth, cutoff=80%) for item Cc1ncc(-c2ccnc(Nc3ccc(S(C)(=O)=O)cc3)n2)n1C(C)C
Solution: not satisfied

Exercise: API: above_or_equal(metric=growth, cutoff=80%) for item CNC(=O)c1cc(Oc2ccc(NC(=O)Nc3ccc(Cl)c(C(F)(F)F)c3)c(F)c2)ccn1
Solution: not satisfied

Exercise: API: above_or_equal(metric=growth, cutoff=80%) for item COc1cc2c(Nc3ccc(Br)cc3F)ncnc2cc1OCC1CCN(C)CC1
Solution: not satisfied

Exercise: API: above_or_equal(metric=growth, cutoff=80%) for item COc1cc2c(cc1OCCCCCN1CCN(c3ncnc4ccccc34)CC1)N=CC1CCCN1C2=O (stereo unspecified)
Solution: not satisfied

Exercise: API: above_or_equal(metric=growth, cutoff=80%) for item Cc1cc(-c2cc(OC(=O)c3ccccc3)ccc2Cl)cc2nnc(Nc3ccc(OCCN4CCCC4)cc3)nc12
Solution: satisfied

Exercise: API: above_or_equal(metric=growth, cutoff=80%) for item Cc1cnc(NC(=O)Nc2cc(Br)c(C)cc2OC[C@@H]2CNCCO2)cn1
Solution: not satisfied

Exercise: API: above_or_equal(metric=growth, cutoff=80%) for item CCN(CC)c1cc2oc3cc(N)cc(=N)c-3nc2cc1C
Solution: not satisfied

Exercise: API: above_or_equal(metric=growth, cutoff=80%) for item O=C(CNc1nnc(-c2ccc(Cl)cc2)o1)Nc1ccc(-c2nc3ccccc3s2)cc1
Solution: satisfied

Exercise: API: above_or_equal(metric=growth, cutoff=80%) for item CSc1nc2ncnc(SC)c2[nH]1
Solution: satisfied

Exercise: API: above_or_equal(metric=growth, cutoff=80%) for item Cc1ccc(-c2cc3c(SCC(=O)Nc4cc(C(F)(F)F)ccc4Cl)nccn3n2)cc1
Solution: not satisfied

Exercise: API: above_or_equal(metric=growth, cutoff=80%) for item CNC(=O)c1ccccc1Nc1nc(Nc2ccc3c(c2OC)CCC[C@H](N2CCN(CCO)CC2)C3)ncc1Cl
Solution: not satisfied

Exercise: API: above_or_equal(metric=growth, cutoff=80%) for item Cc1cc(C)n(CC(=O)Nc2ccc(-c3nc4ccccc4s3)cc2)n1
Solution: satisfied

Exercise: API: above_or_equal(metric=growth, cutoff=80%) for item COc1ccc(-c2cnc(-c3ccc(Cl)cc3)[nH]2)cc1OC
Solution: satisfied

Exercise: API: above_or_equal(metric=growth, cutoff=80%) for item CN[C@@H]1C[C@H]2O[C@@](C)([C@@H]1OC)n1c3ccccc3c3c4c(c5c6ccccc6n2c5c31)C(=O)N[C@H]4O
Solution: not satisfied
